Target: COS-7/AMY3 (human calcitonin receptor (CTR) and RAMP3) (Homo sapiens, UniProt O60896+P30988)
Construct: expressed in transfected cells; host or cells: COS-7
Assay: Amylin Receptor cAMP Assay II
Type: cell-based
Details: values marked **: Amylin Receptor cAMP Assay II; COS-7/AMY3 cells, cAMP dynamic 2 kit, 30 min; read-out: Amylin Receptor cAMP Stimulation Activity: EC50
pEC50: −log10 of the molar value.
recordedEndpoint: pEC50

Solved cases (4 shown):
smi | pEC50
O=C1c2c(nc(CCC34CCC(CC3)OC4)c(-c3n[nH]c(=O)o3)c2-c2cnc3c(ccn3Cc3ccc(F)cn3)c2)[C@@H]2CCCN12 | 4.92
O=C1c2c(nc(CCc3ccc(F)cc3)c(-c3n[nH]c(=O)o3)c2-c2ccc3c(c2)oc(=O)n3Cc2ccc(F)cn2)[C@@H]2CCCN12 | 7.40
COc1c(F)ccc2c1CC[C@H]2Nc1nc(C)cc2cc(-c3c4c(nc(CCc5ccc(F)cc5)c3-c3n[nH]c(=O)o3)C35CC(CN3C4=O)C5)sc12 | 9.65
COc1cccc2c1CC[C@H]2Nc1nccc2cc(-c3c4c(nc(CCc5cccc(C(F)(F)F)c5)c3-c3n[nH]c(=O)o3)[C@@H]3CCCN3C4=O)sc12 | 7.15

1. COc1cccc2c1CC(F)(F)[C@@H]2Nc1nccc2cc(-c3c4c(nc(CCc5ccc(F)cc5)c3-c3n[nH]c(=O)o3)[C@@H]3CCCN3C4=O)sc12
2. COc1cccc2c1CC[C@H]2Nc1nccc2cc(-c3c4c(nc(CCc5ccc(F)cc5)c3-c3n[nH]c(=O)o3)[C@]3(C)CCCN3C4=O)sc12
# input // which entry reports the smaller pEC50, 1 or 2 ? Answer format: the label of the selected item.
# output 2

* * *

Target: UniProt P30988
Sequence (P30988 25-474): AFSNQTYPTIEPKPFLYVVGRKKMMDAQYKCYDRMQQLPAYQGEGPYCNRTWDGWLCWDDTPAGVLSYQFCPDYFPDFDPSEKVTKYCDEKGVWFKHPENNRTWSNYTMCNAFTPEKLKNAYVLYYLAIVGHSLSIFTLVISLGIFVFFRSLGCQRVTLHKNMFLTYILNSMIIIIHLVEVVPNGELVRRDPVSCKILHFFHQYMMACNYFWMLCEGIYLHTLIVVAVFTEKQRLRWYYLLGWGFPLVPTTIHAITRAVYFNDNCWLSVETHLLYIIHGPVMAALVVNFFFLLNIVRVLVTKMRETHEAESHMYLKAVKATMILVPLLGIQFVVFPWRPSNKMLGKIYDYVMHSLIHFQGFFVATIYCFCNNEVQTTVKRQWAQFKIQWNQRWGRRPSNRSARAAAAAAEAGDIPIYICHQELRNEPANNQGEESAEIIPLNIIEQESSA
Experiment: Calcitonin Receptor (CTR) cAMP Assay
Settings: COS7-human CTR Clone #2 stable cell line, cAMP dynamic 2 kit, 30 min; read-out: Calcitonin Receptor cAMP Stimulation Activity: EC50
pEC50: −log10 of the molar value.
recordedEndpoint: pEC50

Reference set, count: 8
compound | recordedEndpoint | numericReadout
COc1cccc2c1CC[C@H]2Nc1nccc2cc(-c3c4c(nc(C[C@@H]5CCc6cc(F)ccc65)c3-c3n[nH]c(=O)o3)[C@@H]3CCCN3C4=O)sc12 | pEC50 | 8.35
CC(C)C1CS(=O)(=O)c2c1nc(CCc1ccc(F)cc1)c(-c1n[nH]c(=O)o1)c2-c1ccc2c(c1)oc(=O)n2Cc1ccc(C#N)cn1 (centres unmarked) | pEC50 | 9.23
COc1cccc2c1CC[C@H]2Nc1nccc2cc(-c3c4c(nc(CCc5cc(F)cs5)c3-c3n[nH]c(=O)o3)[C@@H]3CCCN3C4=O)sc12 | pEC50 | 9.33
COc1cccc2c1CC[C@H]2Nc1nccc2cc(-c3c4c(nc(CCc5ccc(F)cc5)c3-c3n[nH]c(=O)o3)[C@]3(C)CCCN3C4=O)sc12 | pEC50 | 8.50
CC(c1ccc(C#N)cn1)N1C(=O)C(C)(C)Oc2cc(-c3c4c(nc(CCc5ccc(F)cc5)c3-c3n[nH]c(=O)o3)[C@@H]3CCCN3C4=O)ccc21 (some centres unmarked) | pEC50 | 8.10
N#Cc1ccc(Cn2ccc3cc(-c4c5c(nc(CCc6ccc(F)cc6)c4-c4n[nH]c(=O)o4)C4CCCN4C5=O)cnc32)cc1F (centres unmarked) | pEC50 | 8.72
O=C1c2c(nc(CCc3ccc(F)cc3)c(-c3n[nH]c(=O)o3)c2-c2ccc3c(c2)oc(=O)n3Cc2ncc(Cl)cc2F)[C@@H]2CCCN12 | pEC50 | 9.48
COc1cccc2c1CC[C@H]2Nc1nccc2cc(-c3c(-c4n[nH]c(=O)o4)c(CCc4ccc(F)cc4)nc4c3C(=O)N3C[C@H]5C[C@@]43C5)sc12 | pEC50 | 9.98

A. O=C1c2c(nc(CCC3CCOCC3)c(-c3cc(=O)[nH]o3)c2-c2ccc3c(ccn3Cc3ccc(F)c(F)c3)c2)[C@@H]2CCCN12
B. O=C1c2c(nc(CCc3ccc(F)cc3)c(-c3n[nH]c(=O)o3)c2-c2cc3ccnc(N[C@@H]4CCc5ccc(Cl)cc54)c3s2)C23CC(CN12)C3
# input Hi there, can you help? I need to know whether A or B has lower measured pEC50. Give the label under which the chosen entry appears.
# output A
(A: 7.71, B: 9.59)

I. CN(Cc1ccc(F)c(F)c1)C(=O)c1ccc(-c2c3c(nc(CCc4ccc(F)cc4)c2-c2noc(=O)[nH]2)[C@@H]2CCCN2C3=O)s1
II. CC(C)C1CS(=O)(=O)c2c1nc(CCC1CCOCC1)c(-c1cc(=O)[nH]o1)c2-c1cc2ccnc(N[C@@H]3CCc4ncccc43)c2s1 (some centres unmarked)
# input Among I and II , whose measured pEC50 is the smaller figure? Give the label under which the chosen entry appears.
# output II
(II: 7.28, I: 7.54)

P. COc1cccc2c1CC[C@H]2Nc1nccc2cc(-c3c4c(nc(CCc5ccc(-n6cccn6)cc5)c3-c3n[nH]c(=O)o3)[C@@H]3CCCN3C4=O)sc12
Q. COc1cccc2c1CC[C@H]2Nc1nccc2cc(-c3c4c(nc(C[C@H]5CCc6cc(F)ccc65)c3-c3n[nH]c(=O)o3)[C@@H]3CCCN3C4=O)sc12
# input // pick larger pEC50 from pair: P vs Q Provide the label of your selected option as the answer.
# output Q
(Q: 9.15, P: 8.93)

A. O=C1c2c(nc(CCc3ccc(F)cc3)c(-c3noc(=O)[nH]3)c2-c2cc3ccnc(N[C@@H]4CCCc5ccccc54)c3s2)[C@@H]2CCCN12
B. COc1cccc2c1CC[C@H]2Nc1nccc2cc(-c3c4c(nc(CCC5CCOCC5)c3-c3cc(=O)[nH]o3)[C@@H]3CCCN3C4=O)sc12
# input Two entries are listed, A and B . Which one carries the higher pEC50? Pick one; state its label.
# output A

a. C[C@@H](Nc1nccc2cc(-c3c4c(nc(CCc5ccc(F)cc5)c3-c3n[nH]c(=O)o3)[C@@H]3CCCN3C4=O)sc12)c1ccc(F)cc1F
b. CC(c1ccc(C#N)c(F)c1)n1c(=O)oc2cc(-c3c4c(nc(CCc5ccc(F)cc5)c3-c3n[nH]c(=O)o3)[C@@H]3CCCN3C4=O)ccc21 (some centres unmarked)
# input When a and b are compared, which has the higher number for pEC50? Lab log: write the label of the selected item as the result.
# output b
(b: 9.81, a: 7.59)

a. COc1c(F)c(F)cc2c1CC[C@H]2Nc1nccc2cc(-c3c4c(nc(CCc5ccc(F)cc5)c3-c3n[nH]c(=O)o3)[C@@H]3CCCN3C4=O)sc12
b. O=C(NCc1ccc(F)c(F)c1)c1ccc(-c2c3c(nc(CCc4ccc(F)cc4)c2-c2noc(=O)[nH]2)[C@@H]2CCCN2C3=O)s1
# input From the items above, decide which of a and b has the lower pEC50 reading. Kindly give the label for the entry you pick.
# output b
(b: 7.89, a: 11.27)

A. COc1cc(Cl)cc2c1CC[C@H]2Nc1nccc2cc(-c3c4c(nc(CCc5ccc(F)cc5)c3-c3n[nH]c(=O)o3)[C@@H]3CCCN3C4=O)sc12
B. COc1cccc2c1CC[C@H]2Nc1nccc2cc(-c3c4c(nc(CCc5ccc(F)cc5)c3-c3n[nH]c(=O)o3)[C@@H]3COCCN3C4=O)sc12 [Compound 174]
# input Quick check, higher pEC50 between A and B ? # reply format: chosen label
# output B

* * *

Target: COS-7/AMY3 (human calcitonin receptor (CTR) and RAMP3) (Homo sapiens, UniProt O60896+P30988)
Construct: expressed in transfected cells; host or cells: COS-7
Test: Amylin Receptor cAMP Assay II
Format: cell-based
Conditions: values marked **: Amylin Receptor cAMP Assay II; COS-7/AMY3 cells, cAMP dynamic 2 kit, 30 min; read-out: Amylin Receptor cAMP Stimulation Activity: EC50
pEC50: −log10 of the molar value.
recordedEndpoint: pEC50

Use the examples below as a reference point.
smi | pEC50
COc1c(F)c(F)cc2c1CC[C@H]2Nc1nc(C)cc2cc(-c3c4c(nc(CCc5ccc(F)cc5)c3-c3n[nH]c(=O)o3)C35CC(CN3C4=O)C5)sc12 | 10.00
COc1cccc2c1CC[C@H]2Nc1nccc2cc(-c3c4c(nc(CCc5ccn6ccnc6c5)c3-c3n[nH]c(=O)o3)[C@@H]3CCCN3C4=O)sc12 | 7.47

A. COc1cccc2c1CC[C@H]2Nc1nccc2cc(-c3c(-c4n[nH]c(=O)o4)c(CCc4ccc(F)cc4)nc4c3S(=O)(=O)C[C@@H]4C(C)C)sc12
B. COc1c(F)ccc2c1CC[C@H]2Nc1nccc2cc(-c3c4c(nc(CCc5cccc(F)c5)c3-c3n[nH]c(=O)o3)C35CC(CN3C4=O)C5)sc12
C. COc1cccc2c1CC[C@H]2Nc1nccc2cc(-c3c4c(nc(CCc5ccc(F)cc5)c3-c3n[nH]c(=O)o3)[C@H]3COCCN3C4=O)sc12
# input // ascending sort on recorded pEC50 Put the labels in the requested order and list them out.
# output A, C, B
(A: 6.89, C: 7.32, B: 9.40)
